Attribution: ChEMBL document CHEMBL2176912

Assay: Drug uptake in Sprague-Dawley rat brain at 10 mg/kg, po after 480 mins
Format: ADME, organism-based
Parameters: dose 10 mg/kg, route oral
Settings: read-out: Drug uptake
testReadout: concentration at 8 h (ng/mL)
The reply should be a number in ng/mL, with the unit left off.

Problem: Given CS(=O)(=O)NC1(c2ccccc2)CCN(c2ncnc3c2nc(-c2ccccc2Cl)n3-c2ccc(Cl)cc2)CC1 , respond with its concentration at 8 h.
Result: 89

* * *

Experiment: Drug uptake in Sprague-Dawley rat brain at 10 mg/kg, po after 30 mins
Format: ADME, organism-based
Set-up: dose 10 mg/kg, route oral
Conditions: read-out: Drug uptake
testReadout: concentration at 0.5 h
Just the number plus its unit, please.

Problem: Quote concentration at 0.5 h reported for CS(=O)(=O)NC1(c2ccccc2)CCN(c2ncnc3c2nc(-c2ccccc2Cl)n3-c2ccc(Cl)cc2)CC1 please.
Result: 38 ng/mL

* * *

Test system: MDCK
Assay: Permeability from apical to basolateral side in dog MDCK cells expressing MDR-1 gene
Assay type: ADME, cell-based, Canis lupus familiaris
testReadout: permeability (%)
Return type: number; implicit unit %.

Here is how some molecules turned out for permeability.
1. Cc1c(C(=O)N2CCC(C(N)=O)(c3ccccc3)CC2)nn(-c2ccc(Cl)cc2Cl)c1-c1ccc(Cl)cc1 = 8
2. CCNC1(C(N)=O)CCN(c2ncnc3c2nc(-c2ccccc2Cl)n3-c2ccc(Cl)cc2)CC1 [OTENABANT] = 40

Then this molecule:
Problem: Please indicate permeability recorded for NC(=O)C1(c2ccccc2)CCN(c2ncnc3c2nc(-c2ccccc2Cl)n3-c2ccc(Cl)cc2)CC1
Result: 6

* * *

Documented log10(Ke) across a set of compounds
Biological target: Cannabinoid receptor 1 (Homo sapiens, UniProt P21554)
Sequence (P21554 whole entry): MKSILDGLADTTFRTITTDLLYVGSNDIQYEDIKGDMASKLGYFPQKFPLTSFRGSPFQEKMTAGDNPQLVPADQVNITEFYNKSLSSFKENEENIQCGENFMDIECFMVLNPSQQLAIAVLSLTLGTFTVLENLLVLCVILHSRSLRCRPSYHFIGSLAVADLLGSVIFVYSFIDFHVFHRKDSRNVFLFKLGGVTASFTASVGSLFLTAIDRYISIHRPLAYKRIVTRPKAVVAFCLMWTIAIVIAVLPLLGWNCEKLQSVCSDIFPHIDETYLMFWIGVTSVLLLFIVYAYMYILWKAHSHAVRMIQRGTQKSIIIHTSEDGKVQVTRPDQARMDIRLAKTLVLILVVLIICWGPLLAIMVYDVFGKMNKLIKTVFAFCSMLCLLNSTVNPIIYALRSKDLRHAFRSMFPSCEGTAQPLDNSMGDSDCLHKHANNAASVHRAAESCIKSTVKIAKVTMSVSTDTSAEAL
Assay: Antagonist activity at human CB1 receptor transfected in CHO-K1 cells co-expressing Galphaq16 assessed as intracellular calcium mobilization using Calcein-4 AM by fluorescence assay
Assay type: functional, cell-based
Parameter value (number): base-10 log of Ke in nM.

Here is how some compounds turned out for log10(Ke).
1) CS(=O)(=O)N1CCC[C@H](Nc2ncnc3c2nc(-c2ccccc2Cl)n3-c2ccc(Cl)cc2)C1 = 3.78
2) CC(C)NC(=O)NC1(c2ccccc2)CCN(c2ncnc3c2nc(-c2ccccc2Cl)n3-c2ccc(Cl)cc2)CC1 = 1.66
3) Cc1c(C(=O)N2CCC(C(N)=O)(c3ccccc3)CC2)nn(-c2ccc(Cl)cc2Cl)c1-c1ccc(Cl)cc1 = -0.35
4) CS(=O)(=O)NC1(c2ccccc2)CCN(c2ncnc3c2nc(-c2ccccc2Cl)n3-c2ccc(Cl)cc2)CC1 = 0.46
5) O=C(NC1CCN(c2ncnc3c2nc(-c2ccccc2Cl)n3-c2ccc(Cl)cc2)CC1)C(F)(F)F = 0.51

Problem: Look up and state reported log10(Ke) for O=S(=O)(NC1CCN(c2ncnc3c2nc(-c2ccccc2Cl)n3-c2ccc(Cl)cc2)CC1)c1ccccc1
Result: -0.52

Problem: Identify measured log10(Ke) corresponding to CC(C)(C)OC(=O)NC1CCN(c2ncnc3c2nc(-c2ccccc2Cl)n3-c2ccc(Cl)cc2)CC1
Result: 1.04

Problem: For CCNC(=O)N1CCC[C@H](Nc2ncnc3c2nc(-c2ccccc2Cl)n3-c2ccc(Cl)cc2)C1 , write its log10(Ke).
Result: 3.06

Problem: Return log10(Ke) (reported value) for this compound: CC(=O)N1CCC[C@H](Nc2ncnc3c2nc(-c2ccccc2Cl)n3-c2ccc(Cl)cc2)C1
Result: 3.65

Problem: Give log10(Ke) for the following compound: CS(=O)(=O)N1CCC[C@@H](Nc2ncnc3c2nc(-c2ccccc2Cl)n3-c2ccc(Cl)cc2)C1
Result: 2.54
